meta.source: the Biogen ADME set (Fang et al. 2023)

measurement_name: MDR1-MDCK efflux ratio
Please reply with the number alone, leaving off any unit.

These recorded examples may help you get a feel for the data.
O=S1(=O)CCN(C2CCN(CC(F)(F)F)CC2)CC1; 0.765
C[C@@H](c1ccc2ccc(O[C@H]3CC[C@@H](C(F)(F)F)CC3)c(C(F)(F)F)c2c1)N1C2CCC1CC(C(=O)O)C2 (stereo partly drawn); 51.8
Cc1oc2ccccc2c1CNc1nnc(-c2ccncc2)o1; 1.02
CCc1nnc(Nc2cccc(C3CCCN(CC(=O)N4CCCC4)C3)n2)s1 (stereo not drawn); 35

# input I am curious: what MDR1-MDCK efflux ratio value has been reported for "COC(=O)N1CCCN(C(=O)c2ccc(-c3ccccc3Cl)o2)CC1" ?
# output 0.661

###

Rule: 1 (yes) for intrinsic clearance, human liver microsomes not less than 30 mL/min/kg, 0 (no) for anything less.

Nc1ncnc2c1c(-c1cnc3[nH]ccc3c1)nn2C1CCCC1; 1 (yes)

# input Can "COc1cccc(CN2CCN(C(=O)Cc3ccc(C)cc3)[C@@H](C)C2)c1" be said to have intrinsic clearance, human liver microsomes at or above 30 mL/min/kg?
# output 1 (yes)

# input Can "CC(=O)Nc1ccc(Oc2ncnc3scc(-c4ccccc4)c23)cc1" be said to have intrinsic clearance, human liver microsomes at or above 30 mL/min/kg?
# output 1 (yes)

# input Can O=C(CN1CCCC(c2nc3ccccc3o2)C1)Nc1ccc(OC(F)(F)F)cc1 (stereo unspecified) be said to have intrinsic clearance, human liver microsomes at or above 30 mL/min/kg?
# output 1 (yes)

###

hey, just use 1.0 if measured MDR1-MDCK efflux ratio is less than 0.7, otherwise 0.0

Cc1nc(Nc2ccc(F)cc2)nc2c1ncn2-c1ccc(F)cc1; 1.0
CC(=O)N1CCC(CNc2nccc3cccnc23)CC1; 0.0
COc1ccccc1-c1cc(C(C)(C)C)nc(-c2ncccn2)n1; 0.0
N#CCCN(C(=O)c1cccs1)C12CC3CC(CC(C3)C1)C2; 1.0
CC(C)N1CCC(O)(c2ccccc2F)CC1; 1.0

# input In the record for "CN(C)c1cncc(-c2ccc(S(=O)(=O)N(C)C)cc2)n1" , is MDR1-MDCK efflux ratio less than 0.7?
# output 1.0

# input In the record for "CS(=O)(=O)Cc1ccn(-c2ccccc2)n1" , is MDR1-MDCK efflux ratio less than 0.7?
# output 1.0

# input In the record for "O=C(Nc1nc2ccccc2[nH]1)c1ccncc1" , is MDR1-MDCK efflux ratio less than 0.7?
# output 0.0

# input In the record for "Cc1ccc(NS(C)(=O)=O)c(C(=O)N(C)c2ccc3ccccc3c2)c1" , is MDR1-MDCK efflux ratio less than 0.7?
# output 0.0

# input In the record for "Cc1cc(C)c(CC(=O)N2CC(CO)C2)c(C)c1" , is MDR1-MDCK efflux ratio less than 0.7?
# output 0.0

# input In the record for "Cn1cc(-c2cccc3c(C(N)=O)cccc23)cn1" , is MDR1-MDCK efflux ratio less than 0.7?
# output 0.0

# input In the record for "Cc1cccc(NC(=O)CN2CCCN(c3ccc(C(F)(F)F)cn3)CC2)c1" , is MDR1-MDCK efflux ratio less than 0.7?
# output 0.0

###

hey, just use 1 if measured MDR1-MDCK efflux ratio is less than 2, otherwise -1

The examples below pair each entry with its known result.
CC(C)(O)CNc1nc(Nc2ccnc(C(F)(F)F)c2)nc(-c2cccc(C(F)(F)F)n2)n1; -1
Cc1cc(N(C)C)nc(-n2cnc(C#N)n2)n1; 1
Cc1cc(C)c(C#N)c(N2CCN(CC(=O)Nc3ccccc3Cl)CC2)n1; 1
Cc1noc(NCc2cccc(-c3cccnc3)c2)n1; 1
O=C(Nn1cnc2ccccc21)c1c2c(nc3ccccc13)CCC2; -1

Could you now consider this next compound?
# input In the record for "O=C(NCc1nc(-c2cnccn2)n[nH]1)C1Cc2ccccc2C1" , is MDR1-MDCK efflux ratio less than 2?
# output -1
